- assay explanation: A549 lung cancer cell viability effects, profiling panel, resazurin fluorescence, 24 h, PK04 Diversity Set (AID 1171); also: test concentration not given here
- reported conditions: higher = more signal, called active from +8 up or from −8 down
Activity calls are given as the source filed them.
What z-score was measured for each of the following?

Prompt line: What value of measured z-score is listed for CN(C)c1ccc(C(O)C2C=CC3C(=O)N(c4ccccc4)C(=O)C3N2Nc2ccccc2F)cc1 (stereo not given) ?
Response line: -0.416 (inactive)

Prompt line: Similarly, `O=C1C[C@@H](O)[C@@H](O)[C@@H]2[C@@H]3C(=O)N(c4ccc(F)cc4F)C(=O)[C@@H]3CC[C@@H]12` ?
Response line: 0.824 (inactive)

Prompt line: What would you report for `O=C1C[C@@H](O)[C@@H](O)[C@@H]2[C@@H]3C(=O)N(Cc4ccc5c(c4)OCO5)C(=O)[C@@H]3CC[C@@H]12` ?
Response line: -0.14 (inactive)

Prompt line: How about `CC=CC1=C(CO)[C@H](O)[C@H]2O[C@H]2[C@H]1O` ?
Response line: -0.482 (inactive)

Prompt line: Could you do the same for `CO[C@H]1COC(=O)[C@@H]2CCCN2C(=O)CC=C[C@@H](C)[C@H](OC)COC(=O)CC=C[C@@H]1C` , please?
Response line: 0.287 (inactive)

Prompt line: Another molecule to check: `C[C@@H]1C=CCC(=O)OC[C@H](C)C(=O)OC[C@H]2O[C@H]1C=C[C@H]2O`
Response line: 0.172 (inactive)

Prompt line: Now consider CCOC(=O)C1=CCC(c2cc3ccccc3[nH]2)NC1 (stereo not given) and answer again.
Response line: -0.412 (inactive)

Prompt line: # repeat for `CC[C@@H](c1ccccc1)n1c(=O)n2n(c1=O)[C@H]1[C@H](O)[C@@H]3O[C@@H]3C(=NOCC(C)C)[C@H]1CC2`
Response line: 0.276 (inactive)

Prompt line: Now try CS(=O)(=O)CCOC(=O)C1=CC(CCCO)=CC(c2cccs2)N(Cc2cccc(OC(F)(F)F)c2)C=C1C(=O)OCCS(C)(=O)=O (stereo not given) .
Response line: -0.284 (inactive)

Prompt line: // repeat for `CO[C@H]1O[C@H](CO)[C@@H](OC(=O)Nc2ccc3c(c2)OCO3)[C@H](OC(=O)Nc2ccccc2-c2ccccc2)[C@@H]1OC(=O)Nc1ccccc1-c1ccccc1` and report
Response line: -1 (inactive)

Prompt line: And for `COCCCNC(=O)[C@@]1(C)c2ccccc2C(=O)N(Cc2ccc(OC(F)(F)F)cc2)[C@H]1c1ccc(CO)cc1` ?
Response line: -0.903 (inactive)

Prompt line: Now the same for `C=CCN1C(=O)[C@]2(O[C@H](CCn3cc(CCO)nn3)[C@@H]([Si](C)(C)c3ccc(OC)cc3)[C@@H]2C)c2cc(N3CCOC3=O)ccc21`
Response line: 0.333 (inactive)

Prompt line: Similarly, `CC(C)NC(=O)[C@@]1(C)c2ccccc2C(=O)N(Cc2cc(F)cc(C(F)(F)F)c2)[C@H]1c1ccc(CO)cc1` ?
Response line: 0.166 (inactive)

Prompt line: Subsequent entry: `CC(C)(C)N1C(=O)[C@H]2[C@H]3[C@H](O)[C@H](O)CC(=NOCc4ccccc4)[C@@H]3CC[C@H]2C1=O`
Response line: -1.58 (inactive)

Prompt line: # repeat for `CCN1C(=O)[C@H]2[C@H]3[C@H](O)[C@H](O)CC(=NOC[C@@H](C)[C@H](OCc4ccccc4)C(C)C)[C@@H]3CC[C@H]2C1=O`
Response line: -0.295 (inactive)
